- assayedSystem: pooled human IgG
readoutName: Enzyme Activity Endpoint Assay (purified): Fab'2 (ng/µL)
Output spec: scalar in ng/µL, unitless text.

Write down Enzyme Activity Endpoint Assay (purified): Fab'2 measured for item PRT-121 (protein) MRNATEAYNEDTPKQITSVWTKGVTPPTPEQFRKYNEDVLHAPYIANQGWYDITKTFNGKDDLLCGAATAGNMLHWWFDQNKTEIEAYLSKYPEKQKIIFNNQELFDLRAAIDTKDSQTNSALFNYFRDKAFPNLSARQLGVMPDLVLDMFINGYYLNVTKTQSTDVNRPYQTKDKRGGIFDAVFTRGDQTTLLTSRHDLKNKTLNEISDLIKQELTEGKALALSHTYANVSISHVINLWGADFNAEGNLEAIYVTDSDANASIGMKKYFVGVNAAGKVAISAKKIEGENIGAQVLGLFTLSTGKDIWEKLS 447
